This collection of values is drawn from patent US12005033B2.

Assay: Liquid droplet spread area on a glass surface
Assay type: physicochemical
Details: 2 minutes after application of 50 μL of liquid to a glass surface
endpoint name: Liquid covered surface area
Answer as a quantity: numeral, then unit.

Enquiry: Recorded Liquid covered surface area of CCCCCCCCC(F)(F)C(F)(F)C(F)(F)C(F)(F)C(F)(F)C(F)(F)F [F6H8, F(CF2)6(CH2)8H] , please.
Return: 12.89 ± 0.94 cm^2

Enquiry: Query: Liquid covered surface area; subject: FC1(F)C(F)(F)C(F)(F)C2(F)C(F)(F)C(F)(F)C(F)(F)C(F)(F)C2(F)C1(F)F (stereo not shown) [Perfluorodecalin, reference compound]
Return: 1.45 ± 0.02 cm^2

Others:
Enquiry: Given the entry CCCCCCCCC [Nonane, reference compound] , report its measured Liquid covered surface area.
Return: 5.20 ± 0.18 cm^2

Enquiry: Entry CCCCCC(F)(F)C(F)(F)C(F)(F)C(F)(F)F [F4H5, F(CF2)4(CH2)5H] : reported Liquid covered surface area = ?
Return: 7.54 ± 0.33 cm^2
